meta.source: patent US20120329767A1

Tested on: N2A
Assay: MTT test on N2A neuroblastoma line
Type: cell-based
Settings: MTT method
pIC50: −log10 of the molar value.
# pIC50 values compiled below

>  <compound>
CC#[N+][Ru-4]123([c]4c(cc(C)cc4-c4cccc[n+]41)-c1cccc[n+]12)[n+]1cccc2ccc4ccc[n+]3c4c21.F[P-](F)(F)(F)(F)F [Compound (9)]

>  <pIC50>
6.00 to 7.00

$$$$

From here, focus on the item given below.
Identify measured pIC50 obtained with N2A for CC#[N+][Ru-4]123([c]4c(cc(C(=O)OC)cc4-c4cccc[n+]41)-c1cccc[n+]12)[n+]1cccc2ccc4ccc[n+]3c4c21.F[P-](F)(F)(F)(F)F [Compound (8)] .
5.70 to 6.00

* * *

Test system: A-172 cells
Assay: MTT test on A172 glioblastoma cells
Assay type: cell-based, human
Conditions: 48 h treatment, A-172 glioblastoma cells, Table 1
pIC50: −log10 of the molar value.
value-type: pIC50

>  <smiles-code>
CC#[N+][Ru-4]123([c]4c(cc(C)cc4-c4cccc[n+]41)-c1cccc[n+]12)[n+]1cccc2ccc4ccc[n+]3c4c21.F[P-](F)(F)(F)(F)F

>  <pIC50>
6.00 to 6.22

$$$$

Supply reported pIC50 belonging to this molecule: CC#[N+][Ru-4]123([c]4c(cc(C(=O)OC)cc4-c4cccc[n+]41)-c1cccc[n+]12)[n+]1cccc2ccc4ccc[n+]3c4c21.F[P-](F)(F)(F)(F)F
5.72 to 5.82
